Hello, the source for this data is ChEMBL document CHEMBL1149288, in case you need it.

Kindly supply the reported EC50 values for the records listed here.
# measuredOn: Mu-type opioid receptor (Homo sapiens, UniProt P35372)
# Sequence (P35372 whole entry): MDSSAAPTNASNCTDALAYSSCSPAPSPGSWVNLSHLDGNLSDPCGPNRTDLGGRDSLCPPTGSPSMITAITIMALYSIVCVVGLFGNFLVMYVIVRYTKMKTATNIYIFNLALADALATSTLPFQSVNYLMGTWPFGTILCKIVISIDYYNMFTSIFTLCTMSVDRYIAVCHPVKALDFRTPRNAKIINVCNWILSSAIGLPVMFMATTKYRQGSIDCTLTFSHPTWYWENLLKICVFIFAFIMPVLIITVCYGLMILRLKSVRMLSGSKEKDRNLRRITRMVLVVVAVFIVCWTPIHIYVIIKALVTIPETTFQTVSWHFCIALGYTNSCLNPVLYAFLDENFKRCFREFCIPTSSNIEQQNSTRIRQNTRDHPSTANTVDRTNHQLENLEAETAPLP
# measurementProtocol: Activity at human recombinant mu opioid receptor expressed in CHO cells by [35S]GTP-gamma-S binding assay
Give bare numbers, in nM.

structureSmilesString	unitName	EC50
CN1CC[C@]23c4c5ccc(O)c4O[C@H]2c2c(c4c(n2C)CCCC4)C[C@@]3(O)C1C5	nM	222
CN1CC[C@]23c4c5ccc(O)c4O[C@H]2c2c(c4c(n2Cc2ccccc2)CCCC4)C[C@@]3(O)C1C5	nM	732
CN1CC[C@]23c4c5ccc(O)c4O[C@H]2c2c(c4c(n2CC2CCCCC2)CCCC4)C[C@@]3(O)C1C5	nM	130
CCn1c2c(c3c1[C@@H]1Oc4c(O)ccc5c4[C@@]14CCN(C)C(C5)[C@]4(O)C3)CCCC2	nM	175

Let us examine a further case.
Briefly, EC50 measured for "CN1CC[C@]23c4c5ccc(O)c4O[C@H]2c2c(c4c(n2CCc2ccccc2)CCCC4)C[C@@]3(O)C1C5" : 175

###

# measuredOn: Kappa-type opioid receptor (Homo sapiens, UniProt P41145)
# Sequence (P41145 whole entry): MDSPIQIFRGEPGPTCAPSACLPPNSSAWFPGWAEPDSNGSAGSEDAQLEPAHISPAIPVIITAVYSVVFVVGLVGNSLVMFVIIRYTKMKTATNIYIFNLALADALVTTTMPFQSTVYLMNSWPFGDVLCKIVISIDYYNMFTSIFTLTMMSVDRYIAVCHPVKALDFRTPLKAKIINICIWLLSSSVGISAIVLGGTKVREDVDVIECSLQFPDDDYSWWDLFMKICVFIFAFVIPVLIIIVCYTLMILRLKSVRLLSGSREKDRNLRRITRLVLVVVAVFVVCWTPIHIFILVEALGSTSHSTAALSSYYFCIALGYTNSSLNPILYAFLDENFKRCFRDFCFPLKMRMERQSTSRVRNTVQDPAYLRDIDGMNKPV
# measurementProtocol: Activity at human recombinant kappa opioid receptor expressed in CHO cells by [35S]GTPgammaS binding assay
# Assay type: functional, cell-based
Checkbox rule: Ke lower than 30 nM = true; Ke not lower than 30 nM = false.

See these solved cases before continuing.
structureSmilesString	measuredOn	assignedClass
Cn1cc(-c2ccccc2)c2c1[C@@H]1Oc3c(O)ccc4c3[C@@]13CCN(CC1CC1)C(C4)[C@]3(O)C2	Kappa-type opioid receptor (Homo sapiens, UniProt P41145)	false
Oc1ccc2c3c1O[C@H]1c4c(c5c(n4Cc4ccccc4)CCCC5)C[C@@]4(O)C(C2)N(CC2CC2)CC[C@]314	Kappa-type opioid receptor (Homo sapiens, UniProt P41145)	false
CCn1cc(-c2ccccc2)c2c1[C@@H]1Oc3c(O)ccc4c3[C@@]13CCN(CC1CC1)C(C4)[C@]3(O)C2	Kappa-type opioid receptor (Homo sapiens, UniProt P41145)	false
Oc1ccc2c3c1O[C@H]1c4c(c5c(n4CC4CC4)CCCC5)C[C@@]4(O)C(C2)N(CC2CC2)CC[C@]314	Kappa-type opioid receptor (Homo sapiens, UniProt P41145)	true

Could you now consider this next molecule?
## Input Please indicate whether the reported Ke of "Cn1c2c(c3c1[C@@H]1Oc4c(O)ccc5c4[C@@]14CCN(CC1CC1)[C@H](C5)[C@]4(O)C3)CCCC2" is strictly below 30 nM.
## Output true

###

# measuredOn: Kappa-type opioid receptor (Homo sapiens)
# measurementProtocol: Displacement of [3H]U-69593 from human recombinant kappa opioid receptor expressed in CHO cells
quantityMeasured: pKi
One number for each entry, as −log10 of the molar value.

The cases that follow already have their pKi on record.
structureSmilesString	pKi
Cn1cc(-c2ccccc2)c2c1[C@@H]1Oc3c(O)ccc4c3[C@@]13CCN(CC1CC1)C(C4)[C@]3(O)C2	7.73
CCn1cc(-c2ccccc2)c2c1[C@@H]1Oc3c(O)ccc4c3[C@@]13CCN(CC1CC1)C(C4)[C@]3(O)C2	7.61
CN1CC[C@]23c4c5ccc(O)c4O[C@H]2c2c(c4c(n2Cc2ccccc2)CCCC4)C[C@@]3(O)C1C5	6.54
Oc1ccc2c3c1O[C@H]1c4c(c5c(n4Cc4ccccc4)CCCC5)C[C@@]4(O)C(C2)N(CC2CC2)CC[C@]314	8.20
CCn1c2c(c3c1[C@@H]1Oc4c(O)ccc5c4[C@@]14CCN(CC1CC1)C(C5)[C@]4(O)C3)CCCC2	8.13
CCn1c2c(c3c1[C@@H]1Oc4c(O)ccc5c4[C@@]14CCN(C)C(C5)[C@]4(O)C3)CCCC2	6.77
CN1CC[C@]23c4c5ccc(O)c4O[C@H]2c2c(c4c(n2CC2CCCCC2)CCCC4)C[C@@]3(O)C1C5	6.58

Briefly, pKi measured for "Oc1ccc2c3c1O[C@H]1c4c(c5c(n4CC4CCCCC4)CCCC5)C[C@@]4(O)C(C2)N(CC2CC2)CC[C@]314" : 7.60
